# cytotoxicity at 10 µM annotations
assay: Toxicity liver stage against HepG2, at 10uM; type: cell-based; set-up: test concentration 10 uM, cell line HepG2-A16-CD81EGFP; details: human, HepG2-A16-CD81EGFP cells; read-out: INHIBITION
Note: unit % is implicit; provide only the numeric part.

Nc1ncnc2nc(C3CCN(C(=O)Cc4ccc(F)cc4)C3)ccc12 (stereo unspecified)	1.76
O=C1[C@H]2CN(c3cnccn3)C[C@H]2CN1CC1CC1	-108

State the recorded cytotoxicity at 10 µM for this entry: COc1ccc(C(=O)CCc2nc(C3CC3)no2)cc1F
-2.89

Same question, CC(C)c1cnc(CN2CCCC(c3ccn[nH]3)C2)o1 (stereo unspecified) this time
-4.01

Moving on to Cc1cc2c(cc1Cl)C=CC1(CCN(CC(=O)N3CCOCC3)CC1)O2
-1.7

Now this one: Cn1cc(C(=O)N2C[C@H]3CC(Oc4ccccc4)C[C@H]3C2)cn1 (stereo partly specified)
3.6

----------
experiment: Toxicity liver stage against HepG2, at 10uM; type: cell-based; set-up: test concentration 10 uM, cell line HepG2-A16-CD81EGFP; conditions: human, HepG2-A16-CD81EGFP cells; read-out: INHIBITION
readout-name: cytotoxicity at 10 µM (%)
Give the value in % but do not write % after it.

See these solved cases before continuing.
CC1CN(CC(=O)Nc2ccncc2)CCN1Cc1nccn1C (stereo unspecified)	-13.7
CCc1ccc(CN(C)C(=O)c2ccc(CSc3nnc[nH]3)o2)nc1	-2.19
Cc1ccc(S(=O)(=O)Nc2c(C)nn(C)c2C)cc1C	12.9

What value of cytotoxicity at 10 µM has been recorded for this entry: COCCNC(=O)Cn1cc(OCc2ccc(F)cc2)c(=O)cc1CO
2.73

Same again, this time with O=C(NC1CCC1)[C@H]1C[C@H]2CN(S(=O)(=O)c3ccccc3)C[C@@H]1O2
-9.02

Would you mind doing c1cnc(NCc2n[nH]c3c2CCN(Cc2ccncc2)C3)nc1 as well?
-3.83

Do the same for O=C(NCCNc1cnccn1)NCC1CCS(=O)(=O)C1 (stereo unspecified) please
-1.68

Query O=C1CO[C@H](c2ccc(NS(=O)(=O)c3ccccc3)cc2)[C@@H](CO)N1 next
2.17

Okay, and Cc1ccoc1C(=O)NC(CC(C)C)C(=O)N1CCC(CO)CC1 (stereo unspecified) ?
0.794

Another molecule to check: O=C(O)c1cc(S(=O)(=O)Nc2ccc(F)cc2Cl)cc2c1OCCO2
-8.12

// next record O=S1(=O)c2cnccc2OC(COc2ccccc2)CN1CC1CC1 (stereo unspecified)
-1.16

----------
The reader will find reported cytotoxicity at 10 µM values listed item by item below.
experiment: Toxicity liver stage against HepG2, at 10uM; type: cell-based; set-up: test concentration 10 uM, cell line HepG2-A16-CD81EGFP; settings: human, HepG2-A16-CD81EGFP cells; read-out: INHIBITION
Please state the number and follow it with the unit.

CCc1nc(CC(=O)N2CCC(C(=O)N3CCCC3)CC2)cs1	-2.71%

Consider the compound CCN(Cc1cnn(C)c1)C[C@H]1CC[C@@H](Cc2ccc(C)nc2)O1 and give its measured cytotoxicity at 10 µM.
5.24%

What do you have for CC(=O)N1CCc2[nH]cnc2C12CCN(C(=O)CCn1cccn1)CC2 ?
5.71%
